Data origin, for the record: patent US8153809B2

Assignment: determine reported pIC50 for the given compounds.
biological target: P2X7 (UniProt Q99572); assay: pIC50 values for P2X7 (Table 1); type: cell-based
Field format: numeric only.

Give its pIC50 value. Item: O=C1C=CN(C(=O)Nc2ccc3c(c2)NC(=O)C3)[C@H](c2ccc(F)cc2)C1
5.385

Item under review: COc1cc(NC(=O)N2C=CC(=O)C[C@H]2c2ccc(F)cc2)c(F)cc1C . Reported pIC50?
7.21

Form field: reported pIC50 of COc1cc(NC(=O)N2C=CC(=O)CC2c2ccc(F)cc2)cc(OC)c1OC (stereo not shown)
5

Reported pIC50, compound Cc1cc(Cl)c(CN(CCO)CCO)cc1NC(=O)N1C=CC(=O)C[C@H]1c1ccc(F)cc1 : ____
7.615
